The reported measurements were obtained from patent US20120316071A1.

Assay target: T1, Recombinant Human DLL4 (delta-like protein 4) (human, UniProt Q9NR61 27-524)
T1 construct: Bought recombinant human DLL4 (R&D Systems Cat#1506-D4/CF); also called rHuman DLL4; Delta-like ligand 4
Protocol summary: ECL binding assay on immobilized DLL4, Fab at 0.04 µM
Criterion: Signal/Noise (0.04 µM) meeting or surpassing 10. Met: Criterion met. Not met: Criterion not met.

# Binder, Assigned label
measured = [
    ("Fab VH5-51_IGHD5-18*01>3_IGHJ4*01 & V3-4_IGLJ1*01 (Fab, V domains shown, Fab expressed in E. coli; VH was cloned into Plasmid A (CH1, His6 and Flag tags) and VL into Plasmid E (lambda CL); also called wildtype; parent Hit Fab VH5-51_IGHD5-18*01>3_IGHJ4*01 & V3-4_IGLJ1*01) VH: EVQLVQSGAEVKKPGESLKISCKGSGYSFTSYWIGWVRQMPGKGLEWMGIIYPGDSDTRYSPSFQGQVTISADKSISTAYLQWSSLKASDTAMYYCARRGYSYGYDYFDYWGQGTLVTVSS VL: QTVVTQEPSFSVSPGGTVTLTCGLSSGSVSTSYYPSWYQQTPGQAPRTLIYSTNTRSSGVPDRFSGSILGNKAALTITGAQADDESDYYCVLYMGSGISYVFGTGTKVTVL", "Criterion met"),
    ("Fab VH5-51_IGHD5-18*01>3_IGHJ4*01 S102A & V3-4_IGLJ1*01 (Fab, V domains shown, Fab with CH1 (Plasmid A, His6 and Flag tags) and lambda CL (Plasmid E)) VH: EVQLVQSGAEVKKPGESLKISCKGSGYSFTSYWIGWVRQMPGKGLEWMGIIYPGDSDTRYSPSFQGQVTISADKSISTAYLQWSSLKASDTAMYYCARRGYAYGYDYFDYWGQGTLVTVSS VL: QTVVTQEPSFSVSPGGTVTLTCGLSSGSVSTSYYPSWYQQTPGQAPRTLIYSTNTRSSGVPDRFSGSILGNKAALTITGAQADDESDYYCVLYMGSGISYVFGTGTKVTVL", "Criterion not met"),
    ("Fab VH5-51_IGHD5-18*01>3_IGHJ4*01 G100A & V3-4_IGLJ1*01 (Fab, V domains shown, Fab with CH1 (Plasmid A, His6 and Flag tags) and lambda CL (Plasmid E)) VH: EVQLVQSGAEVKKPGESLKISCKGSGYSFTSYWIGWVRQMPGKGLEWMGIIYPGDSDTRYSPSFQGQVTISADKSISTAYLQWSSLKASDTAMYYCARRAYSYGYDYFDYWGQGTLVTVSS VL: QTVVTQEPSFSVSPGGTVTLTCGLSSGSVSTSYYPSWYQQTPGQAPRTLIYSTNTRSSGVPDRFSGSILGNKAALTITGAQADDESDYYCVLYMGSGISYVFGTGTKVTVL", "Criterion met"),
    ("Fab VH5-51_IGHD5-18*01>3_IGHJ4*01 Y105A & V3-4_IGLJ1*01 (Fab, V domains shown, Fab with CH1 (Plasmid A, His6 and Flag tags) and lambda CL (Plasmid E)) VH: EVQLVQSGAEVKKPGESLKISCKGSGYSFTSYWIGWVRQMPGKGLEWMGIIYPGDSDTRYSPSFQGQVTISADKSISTAYLQWSSLKASDTAMYYCARRGYSYGADYFDYWGQGTLVTVSS VL: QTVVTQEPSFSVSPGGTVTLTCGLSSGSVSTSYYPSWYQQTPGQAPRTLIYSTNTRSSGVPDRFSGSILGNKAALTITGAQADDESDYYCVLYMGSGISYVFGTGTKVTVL", "Criterion not met"),
    ("Fab VH5-51_IGHD5-18*01>3_IGHJ4*01 G104A & V3-4_IGLJ1*01 (Fab, V domains shown, Fab with CH1 (Plasmid A, His6 and Flag tags) and lambda CL (Plasmid E)) VH: EVQLVQSGAEVKKPGESLKISCKGSGYSFTSYWIGWVRQMPGKGLEWMGIIYPGDSDTRYSPSFQGQVTISADKSISTAYLQWSSLKASDTAMYYCARRGYSYAYDYFDYWGQGTLVTVSS VL: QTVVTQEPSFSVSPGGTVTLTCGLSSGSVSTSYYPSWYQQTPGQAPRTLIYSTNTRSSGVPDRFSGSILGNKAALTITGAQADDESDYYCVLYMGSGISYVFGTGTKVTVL", "Criterion met"),
]

Attention now turns to another entry.
Does the binder Fab VH5-51_IGHD5-18*01>3_IGHJ4*01 Y103A & V3-4_IGLJ1*01 (Fab, V domains shown, Fab with CH1 (Plasmid A, His6 and Flag tags) and lambda CL (Plasmid E)) VH: EVQLVQSGAEVKKPGESLKISCKGSGYSFTSYWIGWVRQMPGKGLEWMGIIYPGDSDTRYSPSFQGQVTISADKSISTAYLQWSSLKASDTAMYYCARRGYSAGYDYFDYWGQGTLVTVSS VL: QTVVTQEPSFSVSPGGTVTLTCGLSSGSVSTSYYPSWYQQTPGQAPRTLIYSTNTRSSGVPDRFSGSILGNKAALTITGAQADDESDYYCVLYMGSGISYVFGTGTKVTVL have recorded Signal/Noise (0.04 µM) that is 10 or more?
Criterion not met
